B1: LINE1-full (parent)
chain: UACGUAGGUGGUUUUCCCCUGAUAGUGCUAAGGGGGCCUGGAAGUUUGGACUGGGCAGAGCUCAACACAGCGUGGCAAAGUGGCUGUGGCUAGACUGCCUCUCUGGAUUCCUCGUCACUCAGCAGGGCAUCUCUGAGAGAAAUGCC

- Variants of: B1
- assay remarks: self-cleavage, relative activity (ratio to wild type); higher = more cleavage; in vitro, sequencing; the parent is a self-cleaving ribozyme
Reported self-cleavage values follow for various variants

Look over these answered cases.
- change: "A64G U85A"
  result: 0.07
- change: "A24G A129G"
  result: 1.19
- change: "A129G A140C"
  result: 0.74
- change: "U13G A138G"
  result: 1.45
- change: "A31G U130C"
  result: 1.45
- change: "A50C A136C"
  result: 2.04
- change: "G54A A121U"
  result: 0.85
- change: "A43C U108C"
  result: 1.78
- change: "U39C G40A"
  result: 0.73
- change: "U104C"
  result: 1.65

# return recorded self-cleavage for entry A77G C110U
0.71

Note down self-cleavage recorded for A31U G82U
0.74

Item G27A U102A : provide self-cleavage
1.12

Give self-cleavage for the following variant: A43G A121U
1.23
